// values below are reported mass density
Experimental Protocol: xn = mol fraction of the nth substance listed
Experimental Parameters: 293.15 K; 100 kPa; Liquid; Vibrating tube method; x1 = 0.05
Hi! Could you send only the number? It should be in kg/m3, unit omitted.

Take a look at these entries with their results.
* [Br-].[Rb+] [rubidium bromide] + O | 1336.9
* [Br-].[Li+] [lithium bromide] + O | 1171.5
* [Cl-].[Na+] [sodium chloride] + O | 1110.8
* [I-].[Na+] [sodium iodide] + O | 1309.5
* [F-].[K+] [potassium fluoride] + O | 1135.5

Kindly consider the entry below.
Quick one: mass density for [Cl-].[Cs+] [cesium chloride] + O ?
1342.6

----------
Experimental Protocol: xn = mol fraction of the nth substance listed
Experimental Parameters: 313.15 K; 100 kPa; Liquid; Vibrating tube method; x1 = 0.03
Assay Readout: mass density (kg/m3)
Hi! Could you send only the number? It should be in kg/m3, unit omitted.

Take a look at these entries with their results.
• [Br-].[Li+] [lithium bromide] + O = 1093.9
• [Br-].[Cs+] [cesium bromide] + O = 1257.3

Quick one: mass density for [I-].[K+] [potassium iodide] + O ?
1184.1

Quick one: mass density for [Br-].[Na+] [sodium bromide] + O ?
1120.4

Quick one: mass density for [F-].[K+] [potassium fluoride] + O ?
1072.9

Quick one: mass density for [Cs+].[F-] [cesium fluoride (CsF)] + O ?
1201.7

----------
Experimental Protocol: xn = mol fraction of the nth substance listed
Experimental Parameters: 323.15 K; 100 kPa; Liquid; Vibrating tube method; x1 = 0.05
Assay Readout: mass density (kg/m3)
Hi! Could you send only the number? It should be in kg/m3, unit omitted.

• [Cl-].[Li+] [lithium chloride] + O = 1054
• [I-].[Rb+] [rubidium iodide (RbI)] + O = 1402
• [F-].[Rb+] [rubidium fluoride (RbF)] + O = 1236.2

Quick one: mass density for [Cl-].[K+] [potassium chloride] + O ?
1110.2

Quick one: mass density for [Cl-].[Rb+] [rubidium chloride] + O ?
1222

Quick one: mass density for [Br-].[Rb+] [rubidium bromide] + O ?
1318.6

Quick one: mass density for [I-].[Li+] [lithium iodide] + O ?
1251.4

Quick one: mass density for [I-].[Na+] [sodium iodide] + O ?
1289.5

Quick one: mass density for [Br-].[Na+] [sodium bromide] + O ?
1200.2

Quick one: mass density for [Cl-].[Cs+] [cesium chloride] + O ?
1325.2

Quick one: mass density for [Cs+].[I-] [cesium iodide] + O ?
1496.9

Quick one: mass density for [Cs+].[F-] [cesium fluoride (CsF)] + O ?
1334.9

----------
Experimental Protocol: xn = mol fraction of the nth substance listed
Experimental Parameters: 293.15 K; 100 kPa; Liquid; Vibrating tube method; x1 = 0.03
Numbers after ± are expanded uncertainties.
Assay Readout: mass density

* [Cl-].[Cs+] [cesium chloride] + O | 1208.3 ± 0.3 kg/m3
* [I-].[K+] [potassium iodide] + O | 1194 ± 0.3 kg/m3
* [Cl-].[Rb+] [rubidium chloride] + O | 1144.2 ± 0.3 kg/m3
* [I-].[Li+] [lithium iodide] + O | 1160.8 ± 0.3 kg/m3
* [F-].[Rb+] [rubidium fluoride (RbF)] + O | 1150.6 ± 0.3 kg/m3

Quick one: mass density for [Br-].[Cs+] [cesium bromide] + O ?
1267.9 ± 0.4 kg/m3

Quick one: mass density for [I-].[Rb+] [rubidium iodide (RbI)] + O ?
1259.7 ± 0.4 kg/m3

Quick one: mass density for [I-].[Na+] [sodium iodide] + O ?
1186.7 ± 0.3 kg/m3

Quick one: mass density for [Br-].[Na+] [sodium bromide] + O ?
1129.5 ± 0.3 kg/m3

Quick one: mass density for [Br-].[Rb+] [rubidium bromide] + O ?
1204.6 ± 0.3 kg/m3

Values compiled from the NIST ThermoML archive (doi:10.1021/je500420g).
